Molecular target: Nav 1.7 (Homo sapiens (Human), UniProt Q15858)
Sequence (Q15858 whole entry): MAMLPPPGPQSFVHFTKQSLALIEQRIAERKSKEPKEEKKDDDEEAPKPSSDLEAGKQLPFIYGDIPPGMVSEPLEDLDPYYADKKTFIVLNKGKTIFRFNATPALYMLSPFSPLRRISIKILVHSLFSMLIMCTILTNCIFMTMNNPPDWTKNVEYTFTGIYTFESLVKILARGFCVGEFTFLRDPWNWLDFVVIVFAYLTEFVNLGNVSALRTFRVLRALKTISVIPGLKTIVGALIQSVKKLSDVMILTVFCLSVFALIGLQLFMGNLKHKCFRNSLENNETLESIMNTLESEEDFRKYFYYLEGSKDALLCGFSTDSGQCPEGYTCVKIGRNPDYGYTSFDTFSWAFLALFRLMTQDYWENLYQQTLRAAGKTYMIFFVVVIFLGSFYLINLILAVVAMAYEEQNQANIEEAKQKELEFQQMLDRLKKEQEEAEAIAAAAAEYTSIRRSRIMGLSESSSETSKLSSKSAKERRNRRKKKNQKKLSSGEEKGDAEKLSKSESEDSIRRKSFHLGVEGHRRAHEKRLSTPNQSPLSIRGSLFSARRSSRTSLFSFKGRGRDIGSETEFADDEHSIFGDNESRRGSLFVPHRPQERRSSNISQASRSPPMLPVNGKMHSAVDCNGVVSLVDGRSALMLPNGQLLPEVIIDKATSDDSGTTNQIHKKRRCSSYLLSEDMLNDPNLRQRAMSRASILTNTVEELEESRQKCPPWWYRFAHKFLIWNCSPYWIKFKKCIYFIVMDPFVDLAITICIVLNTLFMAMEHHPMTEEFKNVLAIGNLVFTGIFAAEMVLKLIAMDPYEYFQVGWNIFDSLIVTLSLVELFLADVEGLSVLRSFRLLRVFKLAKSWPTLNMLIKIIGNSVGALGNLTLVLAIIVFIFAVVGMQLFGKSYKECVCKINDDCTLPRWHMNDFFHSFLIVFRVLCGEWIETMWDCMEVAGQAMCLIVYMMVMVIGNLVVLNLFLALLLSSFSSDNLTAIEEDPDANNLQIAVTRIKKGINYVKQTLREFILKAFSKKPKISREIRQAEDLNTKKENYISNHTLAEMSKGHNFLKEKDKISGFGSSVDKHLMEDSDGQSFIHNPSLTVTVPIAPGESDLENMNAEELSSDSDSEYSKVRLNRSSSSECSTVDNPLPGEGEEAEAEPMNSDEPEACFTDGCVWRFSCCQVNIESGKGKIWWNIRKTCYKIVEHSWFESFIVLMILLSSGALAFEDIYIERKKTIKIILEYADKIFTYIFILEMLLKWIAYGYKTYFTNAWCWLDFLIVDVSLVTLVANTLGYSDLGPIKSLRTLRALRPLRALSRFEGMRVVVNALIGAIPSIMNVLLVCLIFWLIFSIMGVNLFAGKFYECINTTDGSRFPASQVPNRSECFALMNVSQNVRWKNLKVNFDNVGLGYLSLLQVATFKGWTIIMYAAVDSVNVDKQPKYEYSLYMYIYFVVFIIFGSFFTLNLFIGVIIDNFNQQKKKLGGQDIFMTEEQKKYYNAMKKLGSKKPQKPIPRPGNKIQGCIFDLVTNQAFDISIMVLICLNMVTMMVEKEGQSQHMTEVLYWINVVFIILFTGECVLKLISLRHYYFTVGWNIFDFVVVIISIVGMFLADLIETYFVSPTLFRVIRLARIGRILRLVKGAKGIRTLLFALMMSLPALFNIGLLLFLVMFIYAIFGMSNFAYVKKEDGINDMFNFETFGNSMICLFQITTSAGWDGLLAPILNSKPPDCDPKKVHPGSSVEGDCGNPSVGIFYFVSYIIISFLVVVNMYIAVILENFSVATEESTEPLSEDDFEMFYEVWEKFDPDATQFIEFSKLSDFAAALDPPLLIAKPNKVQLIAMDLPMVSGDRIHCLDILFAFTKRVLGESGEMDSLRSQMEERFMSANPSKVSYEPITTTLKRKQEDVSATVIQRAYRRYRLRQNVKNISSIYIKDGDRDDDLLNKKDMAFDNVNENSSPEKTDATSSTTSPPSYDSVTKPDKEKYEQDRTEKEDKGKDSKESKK
Experiment: in-vitro Nav 1.7 PX (IC50)
Format: cell-based
Conditions: in-vitro Nav 1.7 PX data
METRIC NAME: IC50 (nM)

COMPOUND: COc1cc(-c2cccc(OC(C)C)c2)c(F)cc1-n1c(=O)ccc2cc(S(=O)(=O)Nc3ccon3)ccc21
OBSERVED VALUE: 25
//
COMPOUND: COc1ccc(-c2ccc(Cl)c(C)c2)cc1-n1c(=O)ccc2cc(S(=O)(=O)Nc3ccon3)ccc21 [Example 875]
OBSERVED VALUE: 15
//
COMPOUND: COc1cc(-c2cccc(F)c2)ncc1-n1c(=O)ccc2cc(S(=O)(=O)Nc3ccon3)ccc21 [Example 601]
OBSERVED VALUE: 1770
//
COMPOUND: COc1cc(-c2cc(F)cc(C(F)(F)F)c2)ccc1-n1c(=O)ccc2cc(S(=O)(=O)Nc3cnccn3)ccc21
OBSERVED VALUE: 69

###

Target: Nav 1.7 (Homo sapiens (Human), UniProt Q15858)
Assay: in-vitro Nav 1.7 PX (IC50)
Format: cell-based
Details: in-vitro Nav 1.7 PX data
pIC50: −log10 of the molar value.
METRIC NAME: pIC50

COMPOUND: COc1nc(NC2CCCC2)c(Cl)cc1-n1c(=O)ccc2cc(S(=O)(=O)Nc3ccon3)ccc21
METRIC NAME: pIC50
OBSERVED VALUE: 6.01
--
COMPOUND: COc1ccc(-c2cccc(Cl)c2C)cc1-n1c(=O)ccc2cc(S(=O)(=O)Nc3ccon3)ccc21 [Example 891]
METRIC NAME: pIC50
OBSERVED VALUE: 7.70
--
COMPOUND: COc1cc(-c2cc(Cl)cnc2OC)c(F)cc1-n1c(=O)ccc2cc(S(=O)(=O)Nc3cc(C)ncn3)ccc21
METRIC NAME: pIC50
OBSERVED VALUE: 6.99
--
COMPOUND: COc1cc(CC2CCCCC2)c(F)cc1-n1c(=O)ccc2cc(S(=O)(=O)Nc3ccncn3)ccc21
METRIC NAME: pIC50
OBSERVED VALUE: 7.09
--
COMPOUND: COc1cc(-c2ccc(F)c(F)c2)ccc1-n1c(=O)ccc2cc(S(=O)(=O)Nc3ccnc(C)n3)ccc21
METRIC NAME: pIC50
OBSERVED VALUE: 6.55
--
COMPOUND: COc1nc(-c2cc(F)cc(F)c2)c(Cl)cc1-n1c(=O)ccc2cc(S(=O)(=O)Nc3ncccn3)ccc21 [Example 1081]
METRIC NAME: pIC50
OBSERVED VALUE: 5.38
--
COMPOUND: COc1cc(-c2cccc(OC(C)C)c2)ccc1-n1c(=O)ccc2cc(S(=O)(=O)Nc3ncccn3)ccc21
METRIC NAME: pIC50
OBSERVED VALUE: 6.21

###

Target: UniProtKB Q15858
Test: in-vitro Nav 1.7 PX (IC50)
Format: cell-based
pIC50: −log10 of the molar value.
METRIC NAME: pIC50

COMPOUND: COc1nc(OCc2ccc(F)cc2F)c(Cl)cc1-n1c(=O)ccc2cc(S(=O)(=O)Nc3ccon3)ccc21 [Example 1213]
TGT: UniProtKB Q15858
METRIC NAME: pIC50
OBSERVED VALUE: 6.76

COMPOUND: COc1cc(-c2cccc(C(F)(F)F)c2)c(Cl)cc1-n1c(=O)ccc2cc(S(=O)(=O)Nc3ccon3)ccc21 (atropisomer, axis not shown; (M)) [Example 534]
TGT: UniProtKB Q15858
METRIC NAME: pIC50
OBSERVED VALUE: 5.87

COMPOUND: COc1cc(Br)c(F)cc1-n1c(=O)ccc2cc(S(=O)(=O)Nc3cc(OCC4(C)CC4)ncn3)ccc21 (atropisomer, axis not shown; (P)) [Example 1189]
TGT: UniProtKB Q15858
METRIC NAME: pIC50
OBSERVED VALUE: 5.08

COMPOUND: COc1cc(-c2cccc(OC(F)F)c2)c(F)cc1-n1c(=O)ccc2cc(S(=O)(=O)Nc3cccnn3)ccc21 (atropisomer, axis not shown; (P)) [Example 1172]
TGT: UniProtKB Q15858
METRIC NAME: pIC50
OBSERVED VALUE: 7.54

COMPOUND: COc1cc(C#CC2CCCC2)ccc1-n1c(=O)ccc2cc(S(=O)(=O)Nc3cccnn3)ccc21 (atropisomer, axis not shown; (P)) [Example 1239]
TGT: UniProtKB Q15858
METRIC NAME: pIC50
OBSERVED VALUE: 6.95

COMPOUND: COc1cc(-c2cccc(F)c2)c(Cl)cc1-n1c(=O)cc(C)c2cc(S(=O)(=O)Nc3ccon3)ccc21 [Example 348]
TGT: UniProtKB Q15858
METRIC NAME: pIC50
OBSERVED VALUE: 6.80

COMPOUND: COc1nc(C2CC2)c(Cl)cc1-n1c(=O)ccc2cc(S(=O)(=O)Nc3ccon3)ccc21 (atropisomer, axis not shown; (M)) [Example 1229]
TGT: UniProtKB Q15858
METRIC NAME: pIC50
OBSERVED VALUE: 4.76

COMPOUND: COc1cc(-c2cc(F)cnc2OC)c(C)cc1-n1c(=O)ccc2cc(S(=O)(=O)Nc3ccon3)ccc21 (atropisomer, axis not shown; (M)) [Example 425]
TGT: UniProtKB Q15858
METRIC NAME: pIC50
OBSERVED VALUE: 4.70

COMPOUND: COc1cc(-c2ccc(F)c(Cl)c2)ccc1-n1c(=O)cnc2cc(S(=O)(=O)Nc3ccon3)ccc21 [Example 1198]
TGT: UniProtKB Q15858
METRIC NAME: pIC50
OBSERVED VALUE: 7.41

COMPOUND: COc1cc(-c2cccc(C(F)(F)F)c2)c(F)cc1-n1c(=O)ccc2cc(S(=O)(=O)Nc3cccc(F)n3)ccc21 (atropisomer, axis not shown; (P)) [Example 1209]
TGT: UniProtKB Q15858
METRIC NAME: pIC50
OBSERVED VALUE: 7.12

COMPOUND: CO[C@H]1CCCC[C@@H]1n1c(=O)ccc2cc(S(=O)(=O)Nc3ncns3)ccc21 (racemic) [Example 1145]
TGT: UniProtKB Q15858
METRIC NAME: pIC50
OBSERVED VALUE: 6.33

COMPOUND: COc1nc(NC[C@H]2CCC(C)(C)O2)c(Cl)cc1-n1c(=O)ccc2cc(S(=O)(=O)Nc3ccon3)ccc21 [Example 1232]
TGT: UniProtKB Q15858
METRIC NAME: pIC50
OBSERVED VALUE: 5.53
